# Assay comment: inhibition of 3D7 malaria parasite growth – strain 3D7 (AID 2306);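 further: 0% = DMSO wells and 100% = chloroquine plus artemisinin control wells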
# Experimental setup: P. falciparum 3D7 erythrocytic growth, LDH absorbance, 72 h; at 2 µM; stronger effect = higher value
I'd be grateful if you could share measured growth inhibition for these entries.
One number for each entry, in %.

Below, each entry is followed by its recorded growth inhibition result.
Cc1csc(-c2nc(NCc3cccnc3)ncc2-c2ccsc2)n1 ... 87
O=C(Nc1ccc(OC2CCN(Cc3ccco3)C2)c(Cl)c1)c1ccc2ncccc2c1 (stereo not given) ... 92
Cc1cc(-c2ccc(NC(=O)N3CCc4cc(Br)c(N5CCN(C)CC5)cc43)cc2)ccc1C#N ... 99
CC1CC(C)CN(CC(O)CNC(=O)Nc2ccc(Br)cc2)C1 (stereo not given) ... 94
CC(C)(C(=O)Nc1ccc(C2CCC(NCC3CC3)CC2)c(Cl)c1)c1ccc(C(F)(F)F)cc1 (stereo not given) ... 97

# batch size: 5; output growth inhibition per entry
1. CN1CCN(c2cc3c(Nc4ccc5c(cnn5Cc5ccccc5)c4)ncnc3cn2)CC1
2. COc1cccc(C(=O)NCc2cccs2)c1OCc1ccccc1
3. CC1(C)OC[C@]2(C)[C@@H](CC[C@]3(C)C4=CC(=O)CCC4CC[C@@H]23)O1 (stereo not given in full)
4. CN(C)CC(=O)Nc1ccc(-c2ccc3ccnc(N)c3c2)cc1
5. O=C(NC1CCC(CCN2Cc3cccc(C(F)(F)F)c3C2)CC1)c1cccc(-c2cccnc2)c1 (stereo not given)

[out]
1: 88; 2: 96; 3: 97; 4: 101; 5: 100

Data origin: PubChem BioAssay
